# System: NALM-16
# Experiment Summary: selective drug sensitivity score (sDSS, relative to normal bone marrow) (sDSS (score)); higher = more potent and effective on the cell line relative to normal bone marrow cells;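 further: ALL cell lines in 384-well plates, five doses spanning 10,000-fold, each plate scaled between vehicle and 100 µmol/L benzalkonium chloride controls, sDSS an adapted area-under-curve metric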
# Experimental Context: 72 h
Outcome Measure: selective drug sensitivity score

Which selective drug sensitivity score value belongs to CCNC(=O)CCC/C=C\C[C@@H]1[C@@H](/C=C/[C@@H](O)CCc2ccccc2)[C@H](O)C[C@@H]1O [Bimatoprost] (top concentration 5500 nM) ?
0

Which selective drug sensitivity score value belongs to Cn1nnc2c(C(N)=O)ncn2c1=O [Temozolomide] (top concentration 100000 nM) ?
-0.04

Which selective drug sensitivity score value belongs to CNC(=O)CN1CCC(Oc2cc3c(Nc4cccc(Cl)c4F)ncnc3cc2OC)CC1 [Sapitinib] (top concentration 1000 nM) ?
0

Which selective drug sensitivity score value belongs to O=C(CCCCCCC(=O)Nc1ccc([C@H]2O[C@@H](CSc3nc(-c4ccccc4)c(-c4ccccc4)o3)C[C@@H](c3ccc(CO)cc3)O2)cc1)NO [Tubacin] (top concentration 10000 nM) ?
7.14

Which selective drug sensitivity score value belongs to CC1CCC(n2c3cnccc3c3cnc(Nc4ccc5c(n4)CCN(C(=O)CO)C5)nc32)CC1 (stereo unspecified) [AMG-925] (top concentration 1000 nM) ?
6.34

Which selective drug sensitivity score value belongs to C=CCc1cccc(/C=N/NC(=O)CN2CCN(Cc3ccccc3)CC2)c1O [PAC-1] (top concentration 10000 nM) ?
3.58

* * *

# System: KASUMI-9
# Experiment Summary: selective drug sensitivity score (sDSS, relative to normal bone marrow) (sDSS (score)); higher = more potent and effective on the cell line relative to normal bone marrow cells
# Experimental Context: 72 h
Please use the following selective drug sensitivity score ranges when assigning a class: bucket 1: < 1; bucket 2: ≥ 1 and < 7; bucket 3: ≥ 7

Consider the worked cases shown below.
O=C(O)CNC(=O)c1c(O)c2ccccc2n(Cc2ccccc2)c1=O [IOX-2] (top concentration 50000 nM) : bucket 1
Nc1ccn([C@@H]2O[C@H](CO)[C@@H](O)[C@@H]2O)c(=O)n1 [Cytarabine] (top concentration 10000 nM) : bucket 3
CC/C(=C(\c1ccccc1)c1ccc(OCCN(C)C)cc1)c1ccccc1 [Tamoxifen] (top concentration 10000 nM) : bucket 2
CCc1cnn2c(NCc3ccc[n+]([O-])c3)cc(N3CCCC[C@H]3CCO)nc12 [Dinaciclib] (top concentration 1000 nM) : bucket 2
COc1cc2c(cc1OCCCN1CCCC1)N=C(N)C21CCC1 [A-366] (top concentration 25000 nM) : bucket 2

Form field 'band' for Nc1ncnc2c1c(COc1cccc(Cl)c1)nn2C1CCOCC1 (top concentration 10000 nM)
bucket 2

Form field 'band' for CC[C@]12C=CCN3CC[C@@]4(c5cc([C@@]6(C(=O)OC)C[C@@H]7C[C@@H](C(C)(F)F)CN(Cc8c6[nH]c6ccccc86)C7)c(OC)cc5N(C)[C@H]4[C@@](O)(C(=O)OC)[C@@H]1OC(C)=O)[C@@H]32 [Vinflunine] (top concentration 1000 nM)
bucket 2

Form field 'band' for Cc1noc2c1-c1ccccc1C(c1ccc(Cl)cc1)=N[C@H]2CC(N)=O [CPI-0610] (top concentration 10000 nM)
bucket 3

* * *

# System: ALL-PO
# Experiment Summary: selective drug sensitivity score (sDSS, relative to normal bone marrow) (sDSS (score)); higher = more potent and effective on the cell line relative to normal bone marrow cells
# Experimental Context: 72 h
In this section we review reported selective drug sensitivity score values for a set of molecules.
Give the figure by itself; no unit, no explanation.

Below: 5 molecules and their reported selective drug sensitivity score.
CC(C)C[C@H](NC(=O)CNC(=O)c1cc(Cl)ccc1Cl)B(O)O [Ixazomib] (top concentration 1000 nM) : 8.46
CCn1c(-c2nonc2N)nc2cnc(Oc3cccc(NC(=O)c4ccc(OCCN5CCOCC5)cc4)c3)cc21 (top concentration 10000 nM) : -2.14
COCCOc1cnc2ccn([C@H](C)c3nnc4c(F)cc(-c5cnn(C)c5)cn34)c(=O)c2c1 [AMG-337] (top concentration 10000 nM) : -0.06
CNc1nc(-c2ccc3c(N)n[nH]c3c2)cc(N2C[C@@H](C(=O)NC3CCCCC3)CC[C@H]2C)n1 (top concentration 10000 nM) : 8.86
O=C(Nc1cccnc1)N1CCC(Cc2cccc(Oc3ccc(C(F)(F)F)cn3)c2)CC1 [PF-3845] (top concentration 10000 nM) : 2.36

Which selective drug sensitivity score value belongs to COc1cc2c(cc1OCCCN1CCCC1)N=C(N)C21CCC1 [A-366] (top concentration 25000 nM) ?
1.76

Which selective drug sensitivity score value belongs to CCOCc1nc2c(N)nc3ccccc3c2n1CC(C)(C)O [Resiquimod] (top concentration 10000 nM) ?
-4.92
